- Target Of Assay: Human KIR3DL3 (human, UniProt Q8N743 26-410)
- Sequence (Q8N743 26-410 H321N limits assumed): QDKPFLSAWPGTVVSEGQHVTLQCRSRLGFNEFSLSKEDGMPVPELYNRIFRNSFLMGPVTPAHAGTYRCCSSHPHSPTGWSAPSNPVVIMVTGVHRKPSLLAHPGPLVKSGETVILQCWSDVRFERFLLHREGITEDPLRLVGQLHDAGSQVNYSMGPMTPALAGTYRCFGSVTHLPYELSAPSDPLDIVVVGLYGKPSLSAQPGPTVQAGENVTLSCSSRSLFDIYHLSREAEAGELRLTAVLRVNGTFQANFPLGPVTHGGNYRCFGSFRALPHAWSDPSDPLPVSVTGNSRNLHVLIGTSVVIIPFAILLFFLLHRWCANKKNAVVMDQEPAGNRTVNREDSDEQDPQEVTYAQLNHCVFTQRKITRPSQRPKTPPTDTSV
- Assay Notes: cell-based or functional assay
Measure Name: Jurkat IL-2 Luciferase, Fold Activation (fold)
API: value field is a number in fold; no unit string.

# example entries with known answers
KIR3DL3 mAb 574.2.2F11.2.7.4 (antibody, IgG2b, V domains shown, Parental mouse hybridoma antibody, IgG2b; only variable domains given; also called AVS-3703) VH: DVQLVESGGGLVQPGGSRKLSCAASGFTFSYFGMHWVRRAPEKGLEWVAFISSDSTTIYYTDTVKGRFTISRDNPKNTLFLQMTSLRSEDTAIYYCARFYDGAMDYWGQGTSVTVST VL: DIVMTQSQKFMSTSVGDRVSITCKASQSVRTAVAWYQQKPGQSPKVLIYLASNRHTGVPDRFTGSGSGTDFTLTISNVQSEDLADYFCLQHWNYPLTFGAGTKLELK    17.1
KIR3DL3 mAb 574.2.8F7.1.7.4 (antibody, IgG1, V domains shown, Mouse hybridoma antibody, IgG1; only variable domains given; also called AVS-3700) VH: DVKLVESGGGLVKPGGSLKLSCAASGFTFSSYCMSWVRQTPEKRLEWVATISSGGNYIYYPDSVKGRFTISRDIAKNTLYLQMSSLKSEDTAMYYCTRGGYDERYFDYWGQGTILTVSS VL: DIQMTQSPASLSASVGETVTITCRASENIYSYLAWYQQKQGKSPQLLVYNAKTLTEGMPSRFSGSGSGTQFSLRINSLQPEDFGSYYCQHHHGTPRTFGGGTKLEIK    1.2

Form: binder = KIR3DL3 mAb 574.2.2H1.11.6 (antibody, IgG2b, V domains shown, Mouse hybridoma antibody, IgG2b; only variable domains given; also called AVS-3704) VH: DVQLVESGGGLVQPGGSRKLSCAASGFTFSYFGMHWVRRAPEKGLEWVAFISSDSTTIYYTDTVKGRFTISRDNPKNTLFLQMTSLRSEDTAIYYCARFYDGAMDYWGQGTSVTVST VL: DIVMTQSQKFMSTSVGDRVSITCKASQSVRTAVAWYQQKPGQSPKVLIYLASNRHTGVPDRFTGSGSGTDFTLTISNVQSEDLADYFCLQHWNYPLTFGAGTKLELK ; Jurkat IL-2 Luciferase, Fold Activation = 16.2
